target: T1, CD47 protein; test: ELISA on CD47 protein; x axis is log10 of mAb (ng/ml), unit taken from the axis
T1 construct: also called CD47 (ELISA antigen); not shown: The carrier of the coated recombinant protein (an Fc tag as in CD47-Fc, or a His tag as in CD47-His)
experimentalReadout: EC50 (ng/mL)
Give the quantity in ng/mL, number only.

// EC50 lookup, binder = 108C10A6 (antibody, V domains shown, also called murine anti-CD47 antibody 108C10A6; 108C10A6/108C10F5) VH: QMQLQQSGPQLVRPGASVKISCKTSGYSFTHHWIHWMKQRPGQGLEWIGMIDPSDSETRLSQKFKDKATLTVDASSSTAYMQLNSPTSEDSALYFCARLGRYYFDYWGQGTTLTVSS VL: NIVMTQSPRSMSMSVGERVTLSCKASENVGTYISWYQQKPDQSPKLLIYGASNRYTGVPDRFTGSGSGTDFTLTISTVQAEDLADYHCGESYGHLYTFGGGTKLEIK , result: 62.1

// EC50 lookup, binder = 55F2C4 (antibody, V domains shown, also called 01-55F2C4) VH: QVQLQQSGPQLVRPGASVKISCKASGYSFTNYWMHWMKQRPGQGLEWIGMIDPSDSETRLNQQFKDKATLAVDKSSSTAYMQLSSPTSEDSAVYYCARLGRYYFDYWGQGTTLTVSS VL: NIVMTQSPKSMYVSVGERVTLICRASEIVGTYVSWYQQKPEQSPKLLIYGASNRYTGVPDRFTGSRSATDFSLTISNVQAEDLADYLCGQSYDSPYTFGGGTKLEIK , result: 1.39

// EC50 lookup, binder = 112E5D9 (antibody, V domains shown, purified murine anti-CD47 hybridoma antibody; same VH and VL as 112E5F2 and 112E5H7; also called 10-112E5D9) VH: QVQLQQSGPQLVRPGASVKISCKASGYSFTNNWMHWMKQRPGQGLEWIGMIDPSDSETRLNQQFRDKATLTVDKTSSTAYMQLSSPTSEDSAVYYCARLGRYYFDYWGLGTTLTVSS VL: NIVMTQSPKSMSVSVGERVTMNCRASEIVGTYVSWYQQKPEQSPKLLIYGAFNRYTGVPDRFTGSRSGTDFSLNISNVQAEDLADYLCGQSYDSPYTFGGGTKLEIK , result: 4.77
